B1: PKD2L1 (parent)
chain: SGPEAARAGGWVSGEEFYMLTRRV

- Variants of: B1
- measurementNotes: protein stability index of a GFP-peptide fusion (GPS, HEK-293T) (PSI 1-6); higher = more stable;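 further: lentivirally expressed fusions sorted by FACS into six bins by GFP to DsRed ratio, PSI derived from sequencing read proportions per bin multiplied by bin number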
- measurementParameters: c terminus: a fixed tail appended
valueType: protein stability index

>>> measurement("A8Q")
2.65
>>> measurement("F17T")
3.37
>>> measurement("F17W")
2.14
>>> measurement("R22G")
2.33
>>> measurement("G2H")
2.17
>>> measurement("G2E")
3.1
>>> measurement("F17S")
3.58
>>> measurement("V12Y")
1.96
>>> measurement("P3N")
2.59
>>> measurement("T21L")
2.62
>>> measurement("G10E")
3.31
>>> measurement("A6D")
2.35
>>> measurement("R22S")
2.55
>>> measurement("L20K")
3.46
>>> measurement("T21I")
1.75
>>> measurement("S13A")
1.96
>>> measurement("A8R")
2.03
>>> measurement("V24M")
1.71
>>> measurement("E4G")
2.42
>>> measurement("M19C")
2.82
>>> measurement("G9I")
2.25
>>> measurement("V24W")
2.14
>>> measurement("V24D")
3.54
>>> measurement("T21K")
3.71
>>> measurement("V12K")
2.47
>>> measurement("Y18F")
2.23
>>> measurement("R7M")
2.64
>>> measurement("R23L")
1.53
>>> measurement("A5L")
2.19
>>> measurement("F17K")
3.39
>>> measurement("R7N")
2.44
>>> measurement("G14T")
3
>>> measurement("V24T")
2.98
>>> measurement("G10H")
3.21

These measurements were taken from the supplement of paper PMC10567573.
